Ref: paper PMC6835155

Target Entity: LIMK1KD (Homo sapiens, UniProt P53667)
Construct: His6 (N, cleaved yes); made in house; host or cells: baculovirus; Sf9 for virus, TriEx insect cells for expression
Sequence (P53667 330-637): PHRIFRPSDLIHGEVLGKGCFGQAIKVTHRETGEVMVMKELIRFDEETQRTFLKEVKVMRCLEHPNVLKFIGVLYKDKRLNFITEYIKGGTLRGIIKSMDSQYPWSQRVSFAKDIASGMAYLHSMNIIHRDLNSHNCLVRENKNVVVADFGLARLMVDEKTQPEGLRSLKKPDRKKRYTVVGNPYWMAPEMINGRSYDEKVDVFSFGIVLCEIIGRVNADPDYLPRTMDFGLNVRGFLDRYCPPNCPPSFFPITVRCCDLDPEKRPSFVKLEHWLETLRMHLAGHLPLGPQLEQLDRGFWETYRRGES
Protocol Details: Differential (dynamic) scanning fluorimetry (DSF) assay, LIMK1KD
Type: binding
Stated Conditions: 2 µM LIMK1KD, compound 10 µM, single shot; read-out: TM Shift LIMK1 (K)
Where a name gives a salt, the structure may show the parent alone.
Parameter Measured: ΔTm at 10 µM (°C)

Past entries and their recorded results:
{"Molecule": "CNC(=O)c1ccc(-c2cnc3ncc(Cc4ccc5ncccc5c4)n3n2)cc1F", "ΔTm at 10 µM, °C": -0.2}
{"Molecule": "C=CC(=O)Nc1ccc2ncnc(Nc3ccc(OCc4cccc(F)c4)c(Cl)c3)c2c1", "ΔTm at 10 µM, °C": 0.4}
{"Molecule": "Cc1ccc2nc(NCCN)c3ncc(C)n3c2c1", "ΔTm at 10 µM, °C": 0.4}

1: CNCc1ccc(-c2cc(-c3nc(-c4ccc(S(=O)(=O)C(C)C)cc4)cnc3N)on2)cc1
2: Cn1cnc2c(F)c(Nc3ccc(Br)cc3F)c(C(=O)NOCCO)cc21
3: CC(C)CC(=O)Nc1[nH]nc2c1CN(C(=O)C1CCN(C)CC1)C2(C)C
4: [H]/N=C(/N)N/C(=N/[H])NCCc1ccccc1 [Phenformin HCl]
5: CC(=O)Nc1cccc(-n2c(=O)n(C3CC3)c(=O)c3c(Nc4ccc(I)cc4F)n(C)c(=O)c(C)c32)c1
// query Endpoint returns the given molecules ordered by ascending ΔTm at 10 µM. # the answer lists labels in the order requested
// result 1, 4, 5, 2, 3

###

Target Entity: LIMK1KD (Homo sapiens, UniProt P53667)
Construct: His6 (N, cleaved yes); made in house; host or cells: baculovirus; Sf9 for virus, TriEx insect cells for expression
Protocol Details: Differential (dynamic) scanning fluorimetry (DSF) assay, LIMK1KD
Type: binding
Stated Conditions: 2 µM LIMK1KD, compound 10 µM, single shot
Parameter Measured: TM Shift LIMK1 (K)

{"Compound": "CNC(=O)c1cc(Oc2ccc(NC(=O)Nc3ccc(Cl)c(C(F)(F)F)c3)cc2)ccn1 [Sorafenib]", "Endpoint Result": -0.7}
{"Compound": "Cl.Cl.NC1(c2ccc(-c3nc4ccn5c(=O)[nH]nc5c4cc3-c3ccccc3)cc2)CCC1 [MK-2206 2HCl]", "Endpoint Result": 0.4}
{"Compound": "Cn1cc(-c2[nH]c3cc(NC(=O)[C@H](N)C4CCCCC4)cc4c3c2C=NNC4=O)cn1", "Endpoint Result": 11}

a: NC(=O)c1cccc(-c2cc(Nc3ccc(OC(F)(F)F)cc3)ncn2)c1
b: COc1c(C)c(C(=O)c2ccc(N)c(C(=O)[O-])c2)n2ccccc12.[Na+] [SSR128129E]
c: CN(C)c1ccc(-c2nc3ncc(Cl)c(N4CCN(CC(=O)Nc5nccs5)CC4)c3[nH]2)cc1
// query Please list the entries, largest TM Shift LIMK1 (K) first. # the answer lists labels in the order requested
// result c, b, a

a: Cn1cc(-c2ccc3ncc(Cc4ccc5ncccc5c4)n3n2)cn1
b: COc1cc2ncnc(Nc3ccc(O)c(Br)c3)c2cc1OC
// query Of a and b , which shows the smaller TM Shift LIMK1 (K) value? Write down the label attached to your selection.
// result a

###

Target Entity: LIMK2KD (Homo sapiens, UniProt P53671)
Construct: The cDNA coding for LIMK2 residues 330 to 632 was PCR amplified; His6 (N, cleaved yes); made in house; host or cells: baculovirus; Sf9 for virus, TriEx insect cells for expression
Sequence (P53671 330-632): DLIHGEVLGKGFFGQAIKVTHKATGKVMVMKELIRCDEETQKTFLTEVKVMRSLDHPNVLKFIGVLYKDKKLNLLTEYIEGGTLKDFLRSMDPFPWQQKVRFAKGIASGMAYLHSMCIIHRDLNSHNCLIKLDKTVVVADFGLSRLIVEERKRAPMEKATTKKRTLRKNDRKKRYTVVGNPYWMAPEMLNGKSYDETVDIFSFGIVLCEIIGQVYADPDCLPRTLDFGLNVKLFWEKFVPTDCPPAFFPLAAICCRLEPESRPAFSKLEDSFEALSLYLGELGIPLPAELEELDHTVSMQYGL
Protocol Details: Differential (dynamic) scanning fluorimetry (DSF) assay, LIMK2KD
Assay type: binding
Stated Conditions: LIMK2KD, compound 10 µM, single shot; 10 µM
Parameter Measured: TM Shift LIMK2 (K)

{"Compound": "Cc1cnc(NC(=O)Nc2cc(Br)c(C)cc2OC[C@@H]2CNCCO2)cn1 [LY2603618]", "TM Shift LIMK2 (K)": 0.7}
{"Compound": "CCN1CCN(c2ccc(Nc3cc(N(C)C(=O)Nc4c(Cl)c(OC)cc(OC)c4Cl)ncn3)cc2)CC1", "TM Shift LIMK2 (K)": -0.5}
{"Compound": "Cc1cc(Nc2cc(CN3CCOCC3)c3nc(C)c(Cc4ccc(Cl)cc4F)n3n2)n[nH]1", "TM Shift LIMK2 (K)": 1.1}

P: CS(=O)(=O)N1CCN(Cc2cc3nc(-c4cccc5[nH]ncc45)nc(N4CCOCC4)c3s2)CC1 [GDC-0941]
Q: CCc1cncnc1N1CCN(Cc2nc3ccc(C(F)(F)F)cc3[nH]2)CC1 [PF-04708671]
// query Lab note: check whether P or Q shows the higher recorded TM Shift LIMK2 (K). Write down the label attached to your selection.
// result Q
(Q: 1.7 K, P: -0.4 K)

A: CCN(CC)CCNC(=O)c1c(C)[nH]c(/C=C2\C(=O)Nc3ccc(F)cc32)c1C [Sunitinib Malate]
B: Cn1c(=O)n(-c2ccc(C(C)(C)C#N)cc2)c2c3cc(-c4cnc5ccccc5c4)ccc3ncc21
C: N#CCNC(=O)c1ccc(-c2ccnc(Nc3ccc(N4CCOCC4)cc3)n2)cc1 [Momelotinib]
D: CCN(CC)CCNC(=O)c1c(C)[nH]c(/C=C2\C(=O)Nc3ccc(F)cc32)c1C [Sunitinib]
// query Please list the entries, largest TM Shift LIMK2 (K) first. # the answer lists labels in the order requested
// result C, A, D, B
(C: 4.2 K, A: 0.5 K, D: -0.1 K, B: -0.3 K)

P: CC(C)(C)Cn1c(N)nc2ccc(-c3[nH]c(C(C)(C)C)nc3-c3ccc(F)cc3)nc21
Q: Nc1cc(C(F)(F)F)c(-c2cc(N3CCOCC3)nc(N3CCOCC3)n2)cn1
// query Lab note: check whether P or Q shows the higher recorded TM Shift LIMK2 (K). Write down the label attached to your selection.
// result P
(P: 4.4 K, Q: 0.0 K)

A: Cc1ccc(-n2nc(C(C)(C)C)cc2NC(=O)Nc2ccc(OCCN3CCOCC3)c3ccccc23)cc1
B: CS(=O)(=O)N1CCN(Cc2cc3nc(-c4cccc5[nH]ncc45)nc(N4CCOCC4)c3s2)CC1 [Pictilisib]
// query Of A and B , which shows the smaller TM Shift LIMK2 (K) value? Write down the label attached to your selection.
// result B

1: Cc1cnc(NC(=O)Nc2cc(Br)c(C)cc2OC[C@@H]2CNCCO2)cn1 [Rabusertib]
2: CN(c1ncccc1CNc1nc(Nc2ccc3c(c2)CC(=O)N3)ncc1C(F)(F)F)S(C)(=O)=O [PF-00562271]
// query Of 1 and 2 , which shows the smaller TM Shift LIMK2 (K) value? Write down the label attached to your selection.
// result 1
(1: 0.2 K, 2: 0.3 K)

###

Target Entity: LIMK2KD (Homo sapiens, UniProt P53671)
Construct: The cDNA coding for LIMK2 residues 330 to 632 was PCR amplified; His6 (N, cleaved yes); made in house; host or cells: baculovirus; Sf9 for virus, TriEx insect cells for expression
Protocol Details: Differential (dynamic) scanning fluorimetry (DSF) assay, LIMK2KD
Format: binding
Stated Conditions: LIMK2KD, compound 10 µM, single shot; read-out: TM Shift LIMK2 (K)
Parameter Measured: ΔTm at 10 µM (°C)

P: CNc1nc(-c2ccc3c(N)n[nH]c3c2)cc(N2C[C@@H](C(=O)NC3CCCCC3)CC[C@H]2C)n1 [GSK2334470]
Q: COc1cc2c(Nc3ccc(Br)cc3F)ncnc2cc1OCC1CCN(C)CC1 [Vandetanib (ZD6474), Vandetanib]
// query Of P and Q , which shows the smaller ΔTm at 10 µM value? Write down the label attached to your selection.
// result Q

###

Target Entity: LIMK2KD (Homo sapiens)
Construct: The cDNA coding for LIMK2 residues 330 to 632 was PCR amplified; His6 (N, cleaved yes); made in house; host or cells: baculovirus; Sf9 for virus, TriEx insect cells for expression
Protocol Details: Differential (dynamic) scanning fluorimetry (DSF) assay, LIMK2KD
Assay type: binding
Stated Conditions: LIMK2KD, compound 10 µM, single shot; read-out: TM Shift LIMK2 (K)
Parameter Measured: ΔTm at 10 µM (°C)

Past entries and their recorded results:
{"Compound": "S=C(NCc1ccc2c(c1)OCO2)N1CCN(c2ncnc3c2oc2ccccc23)CC1", "Readout Units": "°C", "Endpoint Result": 2.3}
{"Compound": "CCN(CC)CCCCNc1ncc2cc(-c3cc(OC)cc(OC)c3)c(NC(=O)NC(C)(C)C)nc2n1", "Readout Units": "°C", "Endpoint Result": 1.2}
{"Compound": "O=C1c2ccc(Nc3ccc(F)cc3F)cc2CCc2ccc(OC[C@H](O)CO)cc21 [Skepinone-L]", "Readout Units": "°C", "Endpoint Result": -0.6}

a: CO[C@H]1C[C@@H]2CC[C@@H](C)[C@@](O)(O2)C(=O)C(=O)N2CCCC[C@H]2C(=O)O[C@H]([C@H](C)C[C@@H]2CC[C@@H](OP(C)(C)=O)[C@H](OC)C2)CC(=O)[C@H](C)/C=C(\C)[C@@H](O)[C@@H](OC)C(=O)[C@H](C)C[C@H](C)/C=C/C=C/C=C/1C
b: O=C1NC(=O)/C(=C/c2ccc3nccc(-c4ccncc4)c3c2)S1
// query Lab note: check whether a or b shows the higher recorded ΔTm at 10 µM. Write down the label attached to your selection.
// result b
(b: 2.6 °C, a: 0.2 °C)
